Values compiled from patent US20100196390A1.

- measurement target: TrkB (Homo sapiens (Human), UniProt Q16620 32-430)
- Sequence (Q16620 32-430 limits assumed): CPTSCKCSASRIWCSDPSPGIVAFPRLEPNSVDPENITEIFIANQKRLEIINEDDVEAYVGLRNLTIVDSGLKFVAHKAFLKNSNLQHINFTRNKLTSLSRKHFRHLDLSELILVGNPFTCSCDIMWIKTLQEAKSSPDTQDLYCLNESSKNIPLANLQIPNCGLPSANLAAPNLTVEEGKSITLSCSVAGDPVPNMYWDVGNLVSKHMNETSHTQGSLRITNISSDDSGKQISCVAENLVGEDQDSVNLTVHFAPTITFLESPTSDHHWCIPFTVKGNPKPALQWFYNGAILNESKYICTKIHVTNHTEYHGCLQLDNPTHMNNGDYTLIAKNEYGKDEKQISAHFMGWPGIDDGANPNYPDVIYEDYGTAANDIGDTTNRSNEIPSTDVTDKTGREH
- test method notes: koff of Fab at 25 C; T1/2=Log2/koff
Collected T1/2 values appear next to each entry.
Just the number please, in min, no unit attached.

Some solved entries appear below for comparison.
binder	measured value
4-E1 (Fab, V domains shown, Fab) VH: QVQLVQSGAEVKKPGASVKVSCKASGYTFTNYVILWVRQAPGQGLEWMGYINPYNDGTKYNEKFKGRVTMTRDTSTSTVYMELSSLRSEDTAVYYCARLLKYRAFSYYAIDYWGQGTTVTVSS VL: DIQMTQSPSSLSASVGDRVTITCRASENVYSNLAWYQQKPGKAPKLLIYAASNLQSGVPSRFSGSGSGTDFTFTISSLQPEDIATYYCQHFWGSPFTFGQGTKLEIK	0.71
4B12-16 (Fab, V domains shown, Fab) VH: QVQLVQSGAEVKKPGASVKVSCKASGYTFTNYDIIWVRQAPGQGLEWMGYINAYNGRREYNEKFKGRVTMTRDTSTSTVYMELSSLRSEDTAVYYCARLLKYRRFRYYAIDYWGQGTTVTVSS VL: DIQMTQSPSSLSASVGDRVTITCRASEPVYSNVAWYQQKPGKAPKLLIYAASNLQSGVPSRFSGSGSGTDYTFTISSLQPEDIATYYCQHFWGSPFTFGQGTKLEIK	5.6

Lab note: next binder to report on.
Query: Report T1/2 for 4B12-23 (Fab, V domains shown, Fab) VH: QVQLVQSGAEVKKPGASVKVSCKASGYTFTNYDIIWVRQAPGQGLEWMGYINPYNGRREYNEKFKGRVTMTRDTSTSTVYMELSSLRSEDTAVYYCARLLKYRAFRYYAIDYWGQGTTVTVSS VL: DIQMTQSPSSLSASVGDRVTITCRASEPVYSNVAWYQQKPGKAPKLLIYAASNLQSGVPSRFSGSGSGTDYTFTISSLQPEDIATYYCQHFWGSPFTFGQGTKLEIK please.
Response: 10.8
